biological target: Bcl-2-related protein A1 (Mus musculus, UniProt Q07440); assay type: functional;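 note: confirmatory dose–response counterscreen on Bfl-1, used to check hits from a UBC13 polyubiquitin inhibitor campaign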
Sequence (Q07440 whole entry): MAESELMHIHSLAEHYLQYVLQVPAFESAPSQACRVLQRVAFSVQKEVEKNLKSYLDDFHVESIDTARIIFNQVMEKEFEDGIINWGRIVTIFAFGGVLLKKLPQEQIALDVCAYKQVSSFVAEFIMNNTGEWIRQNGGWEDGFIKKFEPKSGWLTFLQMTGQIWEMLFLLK
Activity calls are given as the source filed them.
Bench note: report the call from active, inactive

Cc1nc(N)sc1C(=O)N/N=C/c1cccnc1 = inactive
O=C(Nc1ccc(C2=NCCN2)cc1)c1ccc(C(=O)Nc2ccc(C3=NCCN3)cc2)c([N+](=O)[O-])c1 = active
COc1cccc(NC(=O)CSc2nc3ccccc3c(=O)n2Cc2cccs2)c1 = inactive
COc1cccc2c1NC(C(=O)O)C1CC=CC21 (stereo not given) = active

Then there is this compound:
Q: Recorded test call requested for C#CCOCCOCCOCCNc1nc(N2CCN(C(=O)[C@H](CCCCN)n3cc(CN)nn3)CC2)nc(N2CCN(C(=O)[C@H](CCCCN)n3cc([C@@H](N)[C@H](C)CC)nn3)CC2)n1
Ans: inactive
